System: HCT-116 colon
assayText: NCI-60 one-dose screen, 48 h
testSettings: 10 µM unless noted
About 83,000 compounds went through this panel and 20% of them were active in at least one assay; those are over-represented in the sample as a whole. Calls of active or inactive are those of the source. The calls were made as follows: active = growth percent below 10; inactive = the rest.
Choose the fitting class; nothing outside 1 for active, 0 for inactive is accepted.

Solved cases (6 shown):
>>> assignedlabel("Nc1nc(Nc2ccc([N+](=O)[O-])cc2O)nc(C(Cl)(Cl)Cl)n1")
0
>>> assignedlabel("CC(C)c1nc(N(C)S(C)(=O)=O)nc(-c2ccc(F)cc2)c1/C=C/C(=O)C[C@@H](O)CC(=O)O")
0
>>> assignedlabel("CN(C)CC1C(=O)O[C@H]2[C@H]1CC/C(COC(=O)NCc1ccc(Cn3c(=O)sn(CCCI)c3=O)cc1)=C\\CC[C@@]1(C)O[C@@H]21 (stereo partly drawn)")
1
>>> assignedlabel("Cc1ccc(S(=O)(=O)c2nc(-c3ccccc3)oc2S(C)=O)cc1 (stereo not drawn)")
1
>>> assignedlabel("C=C(C)[C@@H]1CC[C@]2(COC(=O)c3cccnc3)CC[C@]3(C)[C@H](CC[C@@H]4[C@@]5(C)CCCN(C(=O)c6cccnc6)C(C)(C)[C@@H]5CC[C@]43C)[C@@H]12")
0
>>> assignedlabel("C[C@@H]1N=C(c2ccc(Cl)cc2Cl)Nc2nc3ccccn3c2C1=O")
0

Qu. Lab log entry: CC1=NN(c2cccc(Cl)c2)C(=O)/C1=C\C=C\c1ccccc1 — outcome as called in the assay?
Ans. 1

Qu. For Cc1c(Cl)cccc1NC(=O)c1sc2nc3c(cc2c1N)CCCC3 , what call appears in the results of this test?
Ans. 0
